biological target: human CCR2 (CC-Chemokine Receptor 2) (human, UniProt P41597 1-374); experiment: cell-based or functional assay
Sequence (P41597 whole entry): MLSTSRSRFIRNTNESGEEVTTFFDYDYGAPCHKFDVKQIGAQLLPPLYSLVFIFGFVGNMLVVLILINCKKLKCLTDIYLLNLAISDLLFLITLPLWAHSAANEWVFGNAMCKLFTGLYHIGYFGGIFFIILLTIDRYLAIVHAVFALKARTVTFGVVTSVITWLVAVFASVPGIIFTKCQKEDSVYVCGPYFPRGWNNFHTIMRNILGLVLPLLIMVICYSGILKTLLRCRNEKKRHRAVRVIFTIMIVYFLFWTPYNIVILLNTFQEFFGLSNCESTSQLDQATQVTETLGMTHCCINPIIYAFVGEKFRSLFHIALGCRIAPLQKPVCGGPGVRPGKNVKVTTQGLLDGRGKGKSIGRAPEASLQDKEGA
attribute.measured: IC50 in calcium flux assay using human THP-1 cells, ligand MCP-5 (0.43 nM)
Quick note: give the figure in nM, leave out the unit.

Consider the worked cases shown below.
{"binder": "D1-1/45H8L1 (antibody, V domains shown, also called D1H1/45H8L1; D1-1B) VH: QVQLVQSGAEVKKPGASVKVSCKASGYTFTGYYMHWVRQAPGQGLEWMGWINPNSGVTKYAQKFQGRVTMTRDTSTSTVYMELSSLRSEDTAVYYCATGGFGYWGEGTLVTVSS VL: QAVLTQPPSVSKGLRQTATLTCTGNSNNVGNQGAAWLQQHQGQPPKLLSYRNHNRPSGVSERFSPSRSGDTSSLTITGLQPEDEADYYCLAWDSSLRAFVFGTGTKLTVL", "reported.result": 0.27}
{"binder": "D1 (antibody, human IgG1, V domains shown, also called CCR2 D1 IgG; anti-CCR2 D1 antibody) VH: EVQLVQSGAEVKKPGASVKVSCKASGYTFTGYHMHWVRQAPGQGLEWMGWINPNSGVTKYAQKFQGRVTMTRDTSINTAYMELSRLRFDDTDVYYCATGGFGYWGEGTLVTVSS VL: LPVLTQPPSVSKGLRQTATLTCTGNSNNVGNQGAAWLQQHQGQPPKLLSYRNHNRPSGVSERFSPSRSGDTSSLTITGLQPEDEADYYCLAWDSSLRAFVFGTGTKLTVL", "reported.result": 0.28}
{"binder": "1B2 (antibody, human IgG1, V domains shown) VH: EVQLVESGAEVKKPGASVKVSCKASGYTFTGYYMNWVRQAPGQGLEWMGWINPNSGGTKYAQKFQGRVTMTSDTSINTAYMELSRLRYDDTAVYYCATGGFQHWGQGTLVTVSS VL: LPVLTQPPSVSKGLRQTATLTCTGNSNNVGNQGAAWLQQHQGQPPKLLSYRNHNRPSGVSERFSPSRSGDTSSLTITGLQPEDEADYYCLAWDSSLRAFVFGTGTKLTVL", "reported.result": 0.89}

# context switch: different binder, same IC50 in calcium flux assay using human THP-1 cells, ligand MCP-5 (0.43 nM)
Request: # query: IC50 in calcium flux assay using human THP-1 cells, ligand MCP-5 (0.43 nM) of entry 1G11 (antibody, human IgG1, V domains shown) VH: EVQLVESGAEVKKPGASVKVSCKASGYIFTGYYIHWVRQAPGQGLEWMGWINPNNGVTKYAEKFQGRVTMTRDTSITTAYMDLSRLRSDDTAIYYCATGGFEYWGQGTLVTVSS VL: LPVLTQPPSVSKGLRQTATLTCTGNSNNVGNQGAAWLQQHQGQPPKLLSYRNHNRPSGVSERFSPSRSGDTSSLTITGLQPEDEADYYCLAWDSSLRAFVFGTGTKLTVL
Result: 0.56
